MIC reference
Test system: Streptococcus Group D X66
Assay: MIC, standard agar-dilution assay, Streptococcus Group D X66
Format: cell-based
Details: Streptococcus Group D X66; agar dilution
Report only the number, with the unit µg/mL understood.

CCC(=O)OC1C(OC2C(CCN3C(=O)c4ccccc4C3=O)CC(C)C(=O)C=CC(C)=CC(COC3OC(C)C(O)C(OC)C3OC)C(CC)OC(=O)CC(O)C2C)OC(C)C(O)C1N(C)C (stereo not drawn) [Compound 65]: 8
CCC1OC(=O)CC(O)C(C)C(OC2OC(C)C(O)C(N(C)C)C2O)C(CCOc2cccc(Oc3ccccc3)c2)CC(C)C(=O)C=CC(C)=CC1COC1OC(C)C(O)C(OC)C1OC (stereo not drawn) [Compound 48, 20-DH-20-O-(m-Phenoxyphenyl)desmycosin]: 0.5
CCC1OC(=O)CC(O)C(C)C(OC2OC(C)C(O)C(N(C)C)C2O)C(CCOc2ccc(CO)cc2)CC(C)C(=O)C=CC(C)=CC1COC1OC(C)C(O)C(OC)C1OC (stereo not drawn) [Compound 51a]: 16
CCC1OC(=O)CC(O)C(C)C(OC2OC(C)C(O)C(N(C)C)C2O)C(CCOc2ccc(CN3CCCCCC3)cc2)CC(C)C(=O)C=CC(C)=CC1COC1OC(C)C(O)C(OC)C1OC (stereo not drawn) [Compound 42]: 8
CCC1OC(=O)CC(O)C(C)C(OC2OC(C)C(O)C(N(C)C)C2O)C(CCN=[N+]=[N-])CC(C)C(=O)C=CC(C)=CC1COC1OC(C)C(O)C(OC)C1OC (stereo not drawn) [Compound 44, 20-DH-DO-20-Azidodesmycosin]: 4

MIC in this record for CCC1OC(=O)CC(O)C(C)C(OC2OC(C)C(O)C(N(C)C)C2O)C(CCS(=O)(=O)c2ccc(C)cc2)CC(C)C(=O)C=CC(C)=CC1COC1OC(C)C(O)C(OC)C1OC (stereo not drawn) [Compound 46] : 8

MIC in this record for CCC1OC(=O)CC(O)C(C)C(OC2OC(C)C(O)C(N(C)C)C2O)C(CCOc2cccnc2)CC(C)C(=O)C=CC(C)=CC1COC1OC(C)C(O)C(OC)C1OC (stereo not drawn) [Compound 49, 20-DH-20-O-(Pyridin-3-yl)desmycosin] : 16

MIC in this record for CCC1OC(=O)CC(O)C(C)C(OC2OC(C)C(O)C(N(C)C)C2O)C(CCOc2cc(Cl)cc(Cl)c2)CC(C)C(=O)C=CC(C)=CC1COC1OC(C)C(O)C(OC)C1OC (stereo not drawn) [Compound 40] : 4

MIC in this record for CCOC(=O)NN(CCC1CC(C)C(=O)C=CC(C)=CC(COC2OC(C)C(O)C(OC)C2OC)C(CC)OC(=O)CC(O)C(C)C1OC1OC(C)C(O)C(N(C)C)C1O)C(=O)OCC (stereo not drawn) [Compound 45] : 16

MIC in this record for CCC(=O)OC1C(C)OC(OC2C(CCN3C(=O)c4ccccc4C3=O)CC(C)C(=O)C=CC(C)=CC(COC3OC(C)C(O)C(OC)C3OC)C(CC)OC(=O)CC(O)C2C)C(OC(=O)CC)C1N(C)C (stereo not drawn) [Compound 66] : 8

MIC in this record for CCC1OC(=O)CC(O)C(C)C(OC2OC(C)C(O)C(N(C)C)C2O)C(CCOc2ccc(Oc3ccccc3)cc2)CC(C)C(=O)C=CC(C)=CC1COC1OC(C)C(O)C(OC)C1OC (stereo not drawn) [Compound 47, 20-DH-20-O-(p-Phenoxyphenyl)desmycosin] : 0.5

MIC in this record for CCC1OC(=O)CC(O)C(C)C(OC2OC(C)C(OC3CC(C)(O)C(O)C(C)O3)C(N(C)C)C2O)C(CCOc2ncnc3ccccc23)CC(C)C(=O)C=CC(C)=CC1COC1OC(C)C(O)C(OC)C1OC (stereo not drawn) [Compound 19a] : 32

MIC in this record for CCC(=O)OC1C(OC2C(CCCl)CC(C)C(=O)C=CC(C)=CC(COC3OC(C)C(O)C(OC)C3OC)C(CC)OC(=O)CC(O)C2C)OC(C)C(O)C1N(C)C (stereo not drawn) [Compound 69] : 8

MIC in this record for CCC1OC(=O)CC(O)C(C)C(OC2OC(C)C(O)C(N(C)C)C2O)C(CCOc2ccccc2)CC(C)C(=O)C=CC(C)=CC1COC1OC(C)C(O)C(O)C1OC (stereo not drawn) [Compound 58, 20-DH-20-O-Phenyllactenocin] : 4

MIC in this record for CCC1OC(=O)CC(O)C(C)C(OC2OC(C)CC(N(C)C)C2O)C(CCOc2ccccc2)CC(C)C(=O)C=CC(C)=CC1COC1OC(C)C(O)C(OC)C1OC (stereo not drawn) [Compound 70, 20-DH-20-O-Phenyl-4'-deoxydesmycosin] : 2
